Attribution: patent US10377770B2

# target: C-Raf FL (full length CRAF with Y340E and Y341E activating mutations, co-expressed with h14-3-3 zeta) (Homo sapiens (Human), UniProt P04049, Y340E/Y341E)
# Sequence (P04049 whole entry Y340E/Y341E): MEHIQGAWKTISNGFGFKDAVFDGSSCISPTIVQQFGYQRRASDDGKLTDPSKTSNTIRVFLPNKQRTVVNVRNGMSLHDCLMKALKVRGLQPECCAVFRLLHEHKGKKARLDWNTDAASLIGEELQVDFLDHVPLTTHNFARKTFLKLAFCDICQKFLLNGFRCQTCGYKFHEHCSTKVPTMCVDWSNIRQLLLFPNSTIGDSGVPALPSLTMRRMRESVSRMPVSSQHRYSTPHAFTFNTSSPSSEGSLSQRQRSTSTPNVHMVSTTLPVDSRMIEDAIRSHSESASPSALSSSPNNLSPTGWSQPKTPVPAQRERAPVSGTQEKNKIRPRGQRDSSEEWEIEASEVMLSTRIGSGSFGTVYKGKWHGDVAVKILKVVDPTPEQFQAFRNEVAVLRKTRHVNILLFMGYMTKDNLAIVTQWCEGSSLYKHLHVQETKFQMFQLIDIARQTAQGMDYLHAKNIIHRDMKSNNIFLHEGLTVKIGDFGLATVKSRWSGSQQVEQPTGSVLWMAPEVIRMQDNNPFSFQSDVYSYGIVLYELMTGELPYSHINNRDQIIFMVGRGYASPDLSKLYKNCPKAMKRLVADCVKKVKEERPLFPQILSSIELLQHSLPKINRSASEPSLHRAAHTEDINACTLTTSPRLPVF
# Sequence (P63104 whole entry partner): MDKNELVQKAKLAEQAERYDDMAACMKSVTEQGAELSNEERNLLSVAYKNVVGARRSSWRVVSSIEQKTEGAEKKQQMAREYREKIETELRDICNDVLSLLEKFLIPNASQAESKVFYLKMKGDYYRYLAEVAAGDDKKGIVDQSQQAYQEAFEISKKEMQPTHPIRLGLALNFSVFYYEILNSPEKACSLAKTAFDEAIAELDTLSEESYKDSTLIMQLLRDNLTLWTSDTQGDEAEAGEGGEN
# experiment notes: In vitro Raf activity determination, AlphaScreen p-MEK readout, c-Raf (C-Raf FL)
# assay setup: c-Raf approximately 4 nM, ATP 1 μM, pre-incubation 60 minutes, reaction 1 hour
In this scheme, each record receives a class according to its IC50; the ranges are lowest = under 0.04 nM, middle = from 0.04 nM up to 0.5 nM, highest = 0.5 nM and over

Incoming: Would you mind sorting Cc1ccc(NC(=O)c2ccnc(C(C)(C)F)c2)cc1-c1ccc2c(c1)N1CCOC[C@H]1[C@](F)(CN)C2 into the appropriate category?
Outgoing: highest

Incoming: Would you mind sorting Cc1ccc(NC(=O)c2cnnc(C(F)(F)F)c2)cc1-c1ccc2c(c1)N1CCOCC1CC2O (racemic) into the appropriate category?
Outgoing: lowest

Incoming: Would you mind sorting CO[C@@H]1C[C@@H]2COCCN2c2cc(-c3cc(NC(=O)c4cccc(C(F)(F)F)c4)cnc3C)ccc21 (racemic) into the appropriate category?
Outgoing: lowest

Incoming: Would you mind sorting CC[C@@H]1Oc2nnc(-c3cc(NC(=O)c4ccnc(C(C)(F)F)c4)ccc3C)cc2N2CCOC[C@H]12 into the appropriate category?
Outgoing: middle

Incoming: Would you mind sorting Cc1ncc(NC(=O)c2cccc(C(F)(F)F)c2)cc1-c1cnc2c(c1)N1CCOC[C@H]1[C@H](C(C)(C)O)C2 into the appropriate category?
Outgoing: highest

Incoming: Would you mind sorting Cc1ncc(NC(=O)c2cccc(C(F)(F)F)c2)cc1-c1cnc2c(c1)[C@@H]1CCOC[C@H]1C(=O)N2CC(F)F into the appropriate category?
Outgoing: middle

Incoming: Would you mind sorting CCN1C(=O)CC2COCCN2c2cc(-c3cc(NC(=O)c4ccnc(C(C)(F)F)c4)ccc3C)cnc21 (racemic) into the appropriate category?
Outgoing: lowest

Incoming: Would you mind sorting Cc1ccc(NC(=O)c2cncc(C(F)(F)F)c2)cc1-c1ccc2c(c1)N1CCOC[C@H]1[C@](F)(CO)C2 [Example 393] into the appropriate category?
Outgoing: middle

Incoming: Would you mind sorting Cc1ncc(NC(=O)c2cccc(C(F)(F)F)c2)cc1-c1ccc2c(c1)N1CCOC[C@H]1[C@@](F)(CO)C2 into the appropriate category?
Outgoing: middle

Incoming: Would you mind sorting CCN1C(=O)[C@@H]2COCC[C@@]2(C)c2cc(-c3cc(NC(=O)c4ccnc(C(F)(F)F)c4)ccc3C)cnc21 (relative stereo) [Example 342] into the appropriate category?
Outgoing: middle

Incoming: Would you mind sorting Cc1ccc(NC(=O)c2ccnc(C(C)(F)F)c2)cc1-c1ccc2c(c1)N1CCOCC1C1(COC1)C2 (racemic) into the appropriate category?
Outgoing: lowest

Incoming: Would you mind sorting Cc1ccc(NC(=O)c2ccnc(C(C)(F)F)c2)cc1-c1ccc2c(c1)N1CCOCC1C(F)(CO)C2 (single isomer, unassigned) [Example 83] into the appropriate category?
Outgoing: highest

Incoming: Would you mind sorting Cc1ncc(NC(=O)c2cccc(C(F)(F)F)c2)cc1-c1cc2c(nn1)[C@H](O)C[C@@H]1COCCN21 (racemic) into the appropriate category?
Outgoing: middle

Incoming: Would you mind sorting CCN1C(=O)C[C@H]2COCCN2c2cc(-c3cc(NC(=O)c4ccnc(C(F)(F)F)c4)ccc3C)cnc21 into the appropriate category?
Outgoing: middle

Incoming: Would you mind sorting Cc1ccc(NC(=O)c2ccnc(C(C)(F)F)c2)cc1-c1ccc2c(c1)N1CCOC[C@H]1C[C@H]2O into the appropriate category?
Outgoing: lowest

Incoming: Would you mind sorting CCN1C(=O)[C@@H]2[C@H]3COC[C@H]3[C@@H]2c2cc(-c3cc(NC(=O)c4ccnc(C(F)(F)F)c4F)ccc3C)cnc21 into the appropriate category?
Outgoing: middle

Incoming: Would you mind sorting CCN1C(=O)C(C)(C)c2nncn2-c2cc(-c3cc(NC(=O)c4cccc(C(F)(F)F)c4)cnc3C)cnc21 into the appropriate category?
Outgoing: highest
